# TARGET ENTITY: UniProt:O60341
# EXPERIMENTAL PROTOCOL: Inhibition of recombinant LSD1 ( unknown origin) expressed in Escherichia coli BL21 (DE3) cells using H3K4me2 peptide as substrate incubated for 30 mins in presence of FAD by fluorescence microplate reader analysis
pIC50: −log10 of the molar value.
Measured pIC50 of individual entries

Solved cases (4 shown):
• Cc1ccc2c(Nc3ccc(N(C)C)cc3)c3ccc([N+](=O)[O-])cc3nc2c1C = < 5.00
• Cc1ccc2nc3c(C)c(C)ccc3c(Nc3ccc(N(C)C)cc3)c2c1 = 7.89
• CN(C)c1ccc(Nc2c3ccccc3nc3c(N(C)C)cccc23)cc1 = < 5.00
• CN(C)C(=O)c1ccc(Nc2c3ccccc3nc3ccccc23)cc1 = < 5.00

Here is the next item to consider.
[in] Endpoint output: pIC50 of CN(C)Cc1ccc(Nc2c3ccccc3nc3ccccc23)cc1 . Value?
[out] < 5.00
